Target: human vasopressin V1b receptor (Homo sapiens, UniProt P47901)
Construct: expressed in transfected cells; host or cells: CHO-K1 (cell line hV1b-3H2_CHO), membranes
Sequence (P47901 whole entry): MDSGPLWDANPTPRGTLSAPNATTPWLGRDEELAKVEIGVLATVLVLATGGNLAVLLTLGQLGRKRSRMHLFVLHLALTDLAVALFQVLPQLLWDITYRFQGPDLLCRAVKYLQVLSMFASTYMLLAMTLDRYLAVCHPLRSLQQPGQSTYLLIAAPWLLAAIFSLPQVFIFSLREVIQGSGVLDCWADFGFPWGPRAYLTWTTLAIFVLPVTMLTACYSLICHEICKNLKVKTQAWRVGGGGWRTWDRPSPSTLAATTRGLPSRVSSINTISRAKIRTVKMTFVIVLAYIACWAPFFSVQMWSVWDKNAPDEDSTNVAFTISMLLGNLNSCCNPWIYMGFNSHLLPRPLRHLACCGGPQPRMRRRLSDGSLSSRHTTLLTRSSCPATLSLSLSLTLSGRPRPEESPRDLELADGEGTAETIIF
Assay: Vasopressin V1b receptor binding assay (3H-AVP displacement)
Settings: quotient of Ki values: Ki(V1a)/Ki(V1b), Ki(V2)/Ki(V1b) and/or Ki(OT)/Ki(V1b)
Quantity: selectivity vis-a-vis V1b by comparison with V1a, V2 and/or OT

- Compound: "COc1ccc(S(=O)(=O)N2C(=O)C(c3ccccc3OC)(N3CC(O)CC3C(=O)N(C)C)c3cc(C#N)ccc32)c(OC)c1 (single isomer, unassigned; (+)) [Example 16]"
  Study System: "human vasopressin V1b receptor (Homo sapiens, UniProt P47901)"
  Endpoint Value: "improved selectivity"
- Compound: "COc1ccc(S(=O)(=O)N2C(=O)C(c3ccccc3OC)(N3CC(O)CC3C(=O)N(C)C)c3cc(C#N)ccc32)c(OC)c1 (single isomer, unassigned) [Example 1]"
  Study System: "human vasopressin V1b receptor (Homo sapiens, UniProt P47901)"
  Endpoint Value: "improved selectivity"
- Compound: "COc1ccc(S(=O)(=O)N2C(=O)C(c3ccccc3OC)(N3CCC[C@H]3C(=O)N(C)C)c3cc(C#N)ccc32)cc1 (single isomer, unassigned; (+)) [Example 17b]"
  Study System: "human vasopressin V1b receptor (Homo sapiens, UniProt P47901)"
  Endpoint Value: "improved selectivity"
- Compound: "COc1ccc(S(=O)(=O)N2C(=O)C(c3ccccc3OC)(N(C)[C@@H](C)C(=O)N(C)C)c3cc(C#N)ccc32)cc1 (mixture of isomers) [Example 15]"
  Study System: "human vasopressin V1b receptor (Homo sapiens, UniProt P47901)"
  Endpoint Value: "improved selectivity"

Q) Fill in: selectivity vis-a-vis V1b by comparison with V1a, V2 and/or OT of COc1ccc(S(=O)(=O)N2C(=O)C(c3ccccc3OC)(N3C[C@H](O)C[C@H]3C(=O)N(C)C)c3cc(C#N)ccc32)cc1 (some centres unmarked) [Example 19] is ___
A) improved selectivity
